We begin with a simple list: items and their reported competition rate.
Biological target: T1, human MSLN-FL-his protein (human, UniProt Q13421 296-580)
T1 construct: made in HEK293E cells, purified on nickel column; also called hMSLN-FL-his; human MSLN full-length protein; not shown: His tag
T1 sequence (Q13421 other isoform, or with tags, fused parts or gaps): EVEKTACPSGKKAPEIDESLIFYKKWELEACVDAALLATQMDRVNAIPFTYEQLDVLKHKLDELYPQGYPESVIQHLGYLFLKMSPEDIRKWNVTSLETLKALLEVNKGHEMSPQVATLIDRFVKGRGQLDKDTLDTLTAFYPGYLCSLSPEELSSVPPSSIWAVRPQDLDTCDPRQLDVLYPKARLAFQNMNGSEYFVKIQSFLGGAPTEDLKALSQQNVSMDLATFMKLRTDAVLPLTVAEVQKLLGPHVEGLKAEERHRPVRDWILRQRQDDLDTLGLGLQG
Assay: competitive ELISA; row F2.24.10; note: test concentration or dose not given here

BINDER	competition rate
S009-F2.47.1 (antibody, human IgG1, kappa, V domains shown, human-murine chimeric antibody, human IgG1/kappa constant regions) VH: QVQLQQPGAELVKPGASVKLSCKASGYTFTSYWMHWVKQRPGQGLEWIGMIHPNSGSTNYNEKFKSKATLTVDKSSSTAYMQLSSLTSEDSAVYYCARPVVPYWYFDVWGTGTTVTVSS VL: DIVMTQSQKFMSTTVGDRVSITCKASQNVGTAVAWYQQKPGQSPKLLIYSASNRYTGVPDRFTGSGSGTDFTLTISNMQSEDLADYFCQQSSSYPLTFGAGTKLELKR	56%
S009-F1.56.1 (antibody, human IgG1, kappa, V domains shown, human-murine chimeric antibody, human IgG1/kappa constant regions) VH: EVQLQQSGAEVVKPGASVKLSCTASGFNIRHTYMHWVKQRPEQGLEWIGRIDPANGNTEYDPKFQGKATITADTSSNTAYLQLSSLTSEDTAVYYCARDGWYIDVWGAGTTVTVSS VL: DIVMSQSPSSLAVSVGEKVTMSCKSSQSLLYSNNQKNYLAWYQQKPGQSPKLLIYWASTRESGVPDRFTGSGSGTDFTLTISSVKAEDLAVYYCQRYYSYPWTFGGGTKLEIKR	-39%

Data credit: patent US20250250357A1
